Values were extracted from paper PMC6399351.

// values below are reported Minimal inhibitory concentration (MIC)
tested on: Staphylococcus aureus ATCC 43300; details: MRSA; CLSI, Mueller–Hinton broth, 5 × 10^5 CFU/mL, 18 h 37 °C, by CO-ADD
Square brackets hold non-standard residues; d marks the D form. Peptide text beside a SMILES is read from it. * marks the point of attachment. Palmitoyl = CCCCCCCCCCCCCCCC(=O)*; Dap = NC[C@H](N)C(=O)O
// units = µg/mL; emit number, no label

Below, each entry is followed by its recorded Minimal inhibitory concentration (MIC) result.
CCCCCCCCCCCCCCCC(=O)NCC(=O)N[C@@H](CN)C(=O)NCC(=O)N[C@@H](CN)C(=O)O [Pal-G-Dap4] (Palmitoyl-G[Dap]G[Dap]-OH)	8
CCCCCCCCCCCCCCCC(=O)NCC(=O)N[C@@H](CCCNC(=N)N)C(=O)N[C@@H](CCCNC(=N)N)C(=O)NCC(=O)NCC(=O)N[C@@H](CCCNC(=N)N)C(=O)NCC(=O)NCC(=O)N[C@@H](CCCNC(=N)N)C(=O)NCC(=O)N[C@@H](CCCNC(=N)N)C(=O)O [Pal-GR11] (Palmitoyl-GRRGGRGGRGR-OH)	4

Read the next record carefully.
Request: Please look at CCCCCCCCCCCCCCCC(=O)NCC(=O)N[C@@H](CCCNC(=N)N)C(=O)N[C@@H](CCCNC(=N)N)C(=O)NCC(=O)NCC(=O)N[C@@H](CCCNC(=N)N)C(=O)O [Pal-GR6] (Palmitoyl-GRRGGR-OH) and tell me its recorded Minimal inhibitory concentration (MIC) on Staphylococcus aureus ATCC 43300.
Result: 16

====

// values below are reported LD90
test system: Corynebacterium simulans DSM 44415; assay: CFU assay of antimicrobial activity; format: cell-based; details: 10 mM NaP, pH 6.0, 0.25% glucose
Ends that are not written are not given here.

HTQNSSSGQAASSHEQAR [FLG684-701]	> 150 µg/mL
QSGTRHETSSGGQAASSQEQAR [FLG1652-1674]	> 150 µg/mL
QGSHHEQSVNRSGHSGSHHSHTTSQGR [FLG528-554]	> 150 µg/mL

Request: Look up and report measured LD90 for this entry: QSGTRHTQTSSGGQAASSHEQAR [FLG2625-2647]
Result: > 150 µg/mL

Request: Look up and report measured LD90 for this entry: QSGTRHAETSSGGQAASSHEQAR [FLG3273-3295]
Result: > 150 µg/mL

Request: Look up and report measured LD90 for this entry: QSGTHHAENSSGGQAASSHEQAR [FLG2301-2323]
Result: > 150 µg/mL

====

// values below are reported LD90
system: S. aureus ATCC 6538; details: CFU assay, 10 mM NaP, pH 5.5, 0.25% glucose
Square brackets hold non-standard residues; d marks the D form. Peptide text beside a SMILES is read from it. * marks the point of attachment. Palmitoyl = CCCCCCCCCCCCCCCC(=O)*; Orn = NCCC[C@H](N)C(=O)O; Dab = NCC[C@H](N)C(=O)O
// units = µg/mL; emit number, no label

CCCCCCCCCCCCCCCC(=O)NCC(=O)N[C@@H](CCCNC(=N)N)C(=O)N[C@@H](CCCNC(=N)N)C(=O)NCC(=O)NCC(=O)N[C@@H](CCCNC(=N)N)C(=O)O [Pal-GR6] (Palmitoyl-GRRGGR-OH)	2.35
CCCCCCCCCCCCCCCC(=O)NCC(=O)N[C@@H](CCCNC(=N)N)C(=O)NCC(=O)N[C@@H](CCCNC(=N)N)C(=O)O [Pal-GR4] (Palmitoyl-GRGR-OH)	2.35
CCCCCCCCCCCCCCCC(=O)NCC(=O)N[C@H](CCCNC(=N)N)C(=O)N[C@H](CCCNC(=N)N)C(=O)NCC(=O)NCC(=O)N[C@H](CCCNC(=N)N)C(=O)NCC(=O)NCC(=O)N[C@H](CCCNC(=N)N)C(=O)O [(D)-Pal-GR9] (Palmitoyl-G[dR][dR]GG[dR]GG[dR]-OH; C-terminus assumed)	0.15

Request: Look up and report measured LD90 for this entry: CCCCCCCCCCCCCCCC(=O)NCC(=O)N[C@H](CCCCN)C(=O)NCC(=O)N[C@H](CCCCN)C(=O)O [Pal-(D)-GK4] (Palmitoyl-G[dK]G[dK]-OH; C-terminus assumed)
Result: 4.7

Request: Look up and report measured LD90 for this entry: CCCCCCCCCCCCCCCC(=O)NCC(=O)N[C@@H](CCCN)C(=O)N[C@@H](CCCN)C(=O)NCC(=O)NCC(=O)N[C@@H](CCCN)C(=O)NCC(=O)NCC(=O)N[C@@H](CCCN)C(=O)NCC(=O)N[C@@H](CCCN)C(=O)NCC(=O)N[C@@H](CCCN)C(=O)O [Pal-Orn-GR13] (Palmitoyl-G[Orn][Orn]GG[Orn]GG[Orn]G[Orn]G[Orn]-OH; C-terminus assumed)
Result: 0.15

Request: Look up and report measured LD90 for this entry: N=C(N)NCCC[C@H](NC(=O)[C@H](CCCNC(=N)N)NC(=O)[C@H](CS)NC(=O)[C@H](CCCNC(=N)N)NC(=O)[C@H](Cc1c[nH]cn1)NC(=O)[C@H](CO)NC(=O)[C@H](CCCNC(=N)N)NC(=O)[C@H](CS)NC(=O)[C@H](CS)NC(=O)[C@H](CCCNC(=N)N)NC(=O)[C@H](Cc1c[nH]cn1)NC(=O)[C@H](Cc1c[nH]cn1)NC(=O)[C@@H](N)CO)C(=O)O [LCE-3B56-68] (H-SHHRCCRSHRCRR-OH)
Result: 0.075

Request: Look up and report measured LD90 for this entry: CCCCCCCCCCCCCCCC(=O)NCC(=O)N[C@@H](CCN)C(=O)NCC(=O)N[C@@H](CCN)C(=O)O [Pal-G-Dab4] (Palmitoyl-G[Dab]G[Dab]-OH)
Result: 4.7

Request: Look up and report measured LD90 for this entry: CCCCCCCCCCCCCCCC(=O)NCC(=O)N[C@@H](CCCN)C(=O)NCC(=O)N[C@@H](CCCN)C(=O)O [Pal-GO4] (Palmitoyl-G[Orn]G[Orn]-OH; C-terminus assumed)
Result: 9.38
